Subject Of Test: HIF-PHD3 (Homo sapiens, UniProt Q9H6Z9)
Sequence (Q9H6Z9 whole entry): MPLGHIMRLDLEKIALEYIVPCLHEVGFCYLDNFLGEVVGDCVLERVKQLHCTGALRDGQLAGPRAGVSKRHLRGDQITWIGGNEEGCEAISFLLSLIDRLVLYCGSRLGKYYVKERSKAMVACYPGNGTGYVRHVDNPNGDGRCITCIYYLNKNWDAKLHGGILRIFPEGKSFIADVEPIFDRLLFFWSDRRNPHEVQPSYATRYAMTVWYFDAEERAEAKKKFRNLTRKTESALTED
Test Details: Inhibition of the catalytic activity of HIF-PHD3
Assay type: biochemical
Recorded Conditions: comparison compounds of WO 2008/030412; read-out: IC50 (nM) HIF-PHD-3
Measured Parameter: IC50

# Smiles String, Recorded Result
measured = [
    ("CC(C)Oc1cccc(CN2CC[C@@]3(C[C@@H]2C)C(=O)N(c2ccccc2)C(=O)N3c2cccc(F)c2)c1", "> 10000 nM"),
]

----------
Subject Of Test: HIF-PHD2 (Homo sapiens, UniProt Q9GZT9)
Construct: FLAG-tagged full length PHD2 expressed in and purified from baculovirus-infected Sf9 cells; FLAG; made in house; host or cells: baculovirus-infected Sf9 cells
Sequence (Q9GZT9 whole entry): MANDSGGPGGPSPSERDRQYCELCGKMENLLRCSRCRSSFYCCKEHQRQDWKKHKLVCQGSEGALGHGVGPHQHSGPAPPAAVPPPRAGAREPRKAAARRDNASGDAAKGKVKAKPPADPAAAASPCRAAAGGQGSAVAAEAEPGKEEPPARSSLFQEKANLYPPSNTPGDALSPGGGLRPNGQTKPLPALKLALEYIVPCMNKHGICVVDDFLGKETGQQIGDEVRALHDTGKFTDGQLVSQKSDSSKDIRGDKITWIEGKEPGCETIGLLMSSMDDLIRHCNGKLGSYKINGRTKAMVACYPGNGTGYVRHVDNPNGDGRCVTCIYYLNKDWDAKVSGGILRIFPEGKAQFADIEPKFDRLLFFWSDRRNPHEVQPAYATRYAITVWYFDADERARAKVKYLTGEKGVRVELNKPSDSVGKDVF
Test Details: Assay for HIF-PHD2 Catalytic Activity (PHD2 Binding Activity)
Type: biochemical

# Compound, Subject Of Test, IC50
rows = [
    ("CCOC(=O)C1CN(Cc2ncccc2C)CCC12C(=O)N(c1ccc(-c3ccccc3)cc1)C(=O)N2c1nccc(OC)n1 (centres unmarked) [Compound 3-2]", "HIF-PHD2 (Homo sapiens, UniProt Q9GZT9)", "0.5 to 20 nM"),
    ("Cc1cc(N2C(=O)N(c3ccc(-c4ccc(C(=O)O)cc4)cc3)C(=O)C23CCN(Cc2ncccc2C)CC3)ncn1 [Compound 7-9]", "HIF-PHD2 (Homo sapiens, UniProt Q9GZT9)", "0.5 to 20 nM"),
    ("Cc1cccnc1CN1CCC2(CC1)C(=O)N(c1ccc(-c3ccccc3)cc1)C(=O)N2c1ccccc1 [Compound 1-4]", "HIF-PHD2 (Homo sapiens, UniProt Q9GZT9)", "0.5 to 20 nM"),
    ("O=C(O)CN1CCC2(CC1)C(=O)N(c1ccc(-c3ccccc3)cc1)C(=O)N2c1cncnc1 [Compound 2-4]", "HIF-PHD2 (Homo sapiens, UniProt Q9GZT9)", "20 to 50 nM"),
    ("COc1ccnc(N2C(=O)N(c3ccc(-c4nnn[nH]4)cc3)C(=O)C23CCN(Cc2ncccc2C)CC3)n1 [Compound 1-15]", "HIF-PHD2 (Homo sapiens, UniProt Q9GZT9)", "20 to 50 nM"),
    ("CC(C)(C)OC(=O)CN1CCC2(CC1)C(=O)N(c1ccc(-c3ccccc3)cc1)C(=O)N2c1cnccn1 [Compound 2-2]", "HIF-PHD2 (Homo sapiens, UniProt Q9GZT9)", "> 50 nM"),
    ("Cc1cccnc1CN1CCC2(CC1)C(=O)N(c1ccc(-c3ccccc3)cc1)C(=O)N2c1cnc(O)cn1 [Compound 1-45]", "HIF-PHD2 (Homo sapiens, UniProt Q9GZT9)", "20 to 50 nM"),
    ("COC(=O)c1ccc(-c2ccc(N3C(=O)N(c4ccncn4)C4(CCN(Cc5ncccc5C)CC4)C3=O)cc2)c(C)c1 [Compound 8-2]", "HIF-PHD2 (Homo sapiens, UniProt Q9GZT9)", "0.5 to 20 nM"),
]
